Please go through the items and note down their inhibition.
- target.entity: Protein deacetylase HDAC6 (Homo sapiens)
- test.context: at 10 µM
Out of some 5,600 compounds screened, about 390 (7%) showed an effect of 50% or more. The list comes from a sample in which strong results are over-represented; it also holds close analogues and randomly drawn compounds.
Answers are plain numbers, in %.

Known results for compounds:
O=C1C[C@@H](c2ccc(O)cc2)Oc2cc(O)cc(O)c21 : 73.8
CC(C)CN(C[C@@H](OP(=O)(O)O)[C@H](Cc1ccccc1)NC(=O)O[C@H]1CCOC1)S(=O)(=O)c1ccc(N)cc1 : 7.63
CO/N=C(\C(=O)N[C@@H]1C(=O)N2C(C(=O)O)=C(CSC(=O)c3ccco3)CS[C@H]12)c1csc(N)n1 : 22.4
Cn1ncnc1COc1nn2c(-c3c(F)cccc3F)nnc2cc1C1CCC1 : 3.27
O=C(COc1ccc(Cl)cc1)N[C@H]1CC[C@H](NC(=O)COc2ccc(Cl)cc2)CC1 : -5.96

Give measured inhibition for every item shown.
1. Cc1cc(C)c(NC(=O)N(Cc2ccc3c(c2)Cc2ccccc2-3)C2CCCCCC2)c(C)c1
2. O=C(O[C@@H]1Cc2c(O)cc(O)cc2O[C@@H]1c1cc(O)c(O)c(O)c1)c1cc(O)c(O)c(O)c1

-- reply
[0.9, 11.9]

Please go through the list and note inhibition for each compound.
1. C[C@]12CCC(=O)C=C1CC[C@@H]1[C@@H]2[C@@H](O)C[C@]2(C)C(=O)CC[C@@H]12
2. C[C@@H]1COC(Nc2ccc3ncnc(Nc4ccc(OCc5nccs5)c(Cl)c4)c3c2)=N1
3. Cc1ccccc1N1CCN(S(=O)(=O)CC23CCC(C[C@@H]2NC(=O)[C@@H](N)CCS(C)(=O)=O)C3(C)C)CC1 (some centres not stated)
4. Cc1cc2sc(NC(=O)Cc3ccccc3)nc2cc1Cl
5. COc1cc(O)cc([C@@H]2CC(=O)c3c(O)cc(O[C@@H]4O[C@H](CO)[C@@H](O)[C@H](O)[C@H]4O[C@@H]4O[C@@H](C)[C@H](O)[C@@H](O)[C@H]4O)cc3O2)c1
6. Cc1cc(Nc2ncnc3ccc(-c4ccc(CNCCS(C)(=O)=O)o4)cc23)ccc1Oc1ccn2ncnc2c1
7. Cc1ccc2c(c1)Cc1c(C(=O)NN3CCCCC3)nn(-c3ccc(Cl)cc3Cl)c1-2
8. Oc1ccc(-c2nc3cc(O)cc(Br)c3o2)cc1

-- reply
1: -0.5; 2: 62.5; 3: 2.99; 4: 19.7; 5: 5.67; 6: 2.93; 7: 1.48; 8: 101

Quick one: give me inhibition for each item below, same order please.
1. C[C@H]1C[C@@H]2[C@H]([C@@H](O)C[C@@]3(C)[C@H]2CC[C@]3(O)C(=O)COC(=O)CCC(=O)O)[C@@]2(C)C=CC(=O)C=C12
2. OCCNC1CCCc2c1[nH]c1ccc(-c3ccccc3)cc21 (configuration not stated)

-- reply
1. 27.4
2. 59.1
